- measurement.target: T1, GDF15 (Homo sapiens (Human), UniProt Q99988 30-308)
- T1 sequence: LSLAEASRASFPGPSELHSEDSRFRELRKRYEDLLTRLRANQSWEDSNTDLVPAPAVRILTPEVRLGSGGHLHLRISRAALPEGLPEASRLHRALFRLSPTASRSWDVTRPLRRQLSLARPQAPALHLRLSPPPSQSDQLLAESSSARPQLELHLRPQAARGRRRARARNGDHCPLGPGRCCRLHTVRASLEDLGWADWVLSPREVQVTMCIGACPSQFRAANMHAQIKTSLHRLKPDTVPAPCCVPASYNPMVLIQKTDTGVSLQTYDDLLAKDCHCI
- procedure.details: cell-based or functional assay
recorded.metric: GDF15 - GFRAL-RET Luciferase IC50 (pM)
Provide the reading as a plain figure in pM.

Please review the entries below; each comes with its answer.
>  <binder>
Clone I IgG (antibody, V domains shown, IgG format) VH: QVQLVQSGAEVKKPGASVKVSCKASGYTFTDEGINWVRQAPGQGLEWMGWITAYSGDTVYAQKLQGRVTMTTDTSTSTAYMELRSLRSDDTAVYYCARGPGQYADVDVWGQGTMVTVSS VL: DIQMTQSPSSVSASVGDRVTITCRASQGISSWLAWYQQKPGKAPKLLIYAASSLQSGVPSRFSGSGSGTDFTLTISSLQPEDFATYYCQQANSFPITFGGGTKVEIKR

>  <quantity.unit>
pM

>  <GDF15 - GFRAL-RET Luciferase IC50 (pM)>
79.3

$$$$
>  <binder>
Clone E IgG (antibody, V domains shown, IgG format) VH: QVQLVQSGAEVKKPGASVKVSCKASGYTFTSYGINWVRQAPGQGLEWMGWITAYSGDTNYAQKLQGRVTMTTDTSTSTAYMELRSLRSDDTAVYYCARGPGQYADVDVWGQGTMVTVSS VL: DIQMTQSPSSVSASVGDRVTITCRASQGISSWLAWYQQKPGKAPKLLIYAASSLQSGVPSRFSGSGSGTDFTLTISSLQPEDFATYYCQQANSFPITFGGGTKVEIKR

>  <quantity.unit>
pM

>  <GDF15 - GFRAL-RET Luciferase IC50 (pM)>
190

$$$$

If you can, please state the reported GDF15 - GFRAL-RET Luciferase IC50 (pM) value of Clone J IgG (antibody, V domains shown, IgG format) VH: QVQLVQSGAEVKKPGASVKVSCKASGYTFTSYGINWVRQAPGQGLEWMGWIDAYSGSTNYAQKLQGRVTMTTDTSTSTAYMELRSLRSDDTAVYYCARGPGQYADVDVWGQGTMVTVSS VL: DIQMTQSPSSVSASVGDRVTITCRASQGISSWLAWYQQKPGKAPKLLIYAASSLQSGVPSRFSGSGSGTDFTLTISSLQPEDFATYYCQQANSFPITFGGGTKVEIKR .
110

If you can, please state the reported GDF15 - GFRAL-RET Luciferase IC50 (pM) value of Clone L IgG (antibody, V domains shown, IgG format) VH: QVQLVQSGAEVKKPGASVKVSCKASGYTFASYDIIWVRQAPGQGLEWMGWISALSGDTVYAQKLQGRVTMTTDTSTSTAYMELRSLRSDDTAVYYCARTRHDTSGIRFDYWGQGTLVTVSS VL: DIQMTQSPSSVSASVGDRVTITCRASQGIDSWLAWYQQKPGKAPKLLIYAASSLQSGVPSRFSGSGSGTDFTLTISSLQPEDFATYYCQQVHSFPITFGGGTKVEIKR .
274

If you can, please state the reported GDF15 - GFRAL-RET Luciferase IC50 (pM) value of Clone O IgG (antibody, V domains shown, IgG format) VH: QVQLVQSGAEVKKPGATVKVSCKASGYTFDSLGMSWVRQAPGQGLEWMGYISTYSGDTVYAQKLQGRVTMTTDTSTSTAYMELRSLRSDDTAVYYCARESGQQVSALDPWGQGTLVTVSS VL: DIQMTQSPSSVSASVGDRVTITCRASQGISRWLAWYQQKPGKAPKLLIYAASSLQSGVPSRFSGSGSGTDFTLTISSLQPEDFATYYCQQGASFPLTFGGGTKVEIKR .
150

If you can, please state the reported GDF15 - GFRAL-RET Luciferase IC50 (pM) value of Clone K IgG (antibody, V domains shown, IgG format) VH: QVQLVQSGAEVKKPGASVKVSCKASGYTFTNEGISWVRQAPGQGLEWMGWISAYTADTFYAQKLQGRVTMTTDTSTSTAYMELRSLRSDDTAVYYCARTRHDTSGLRFDYWGQGTLVTVSS VL: DIQMTQSPSSVSASVGDRVTITCRASQGIDSWLAWYQQKPGKAPKLLIYAASSLQSGVPSRFSGSGSGTDFTLTISSLQPEDFATYYCQQVHSFPITFGGGTKVEIKR .
813
